- test target: human FRs (KB cells) (Homo sapiens)
- Construct: endogenous in cells; host or cells: KB cells
- Sequence (P15328 25-234): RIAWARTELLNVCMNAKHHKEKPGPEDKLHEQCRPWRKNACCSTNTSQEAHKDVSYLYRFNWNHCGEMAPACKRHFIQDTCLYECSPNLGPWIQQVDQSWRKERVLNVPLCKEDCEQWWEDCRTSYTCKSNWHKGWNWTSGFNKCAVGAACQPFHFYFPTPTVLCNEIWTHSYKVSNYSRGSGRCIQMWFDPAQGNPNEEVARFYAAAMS
- procedure text: Cell-Based Relative Affinity Assay (competition with 3H-FA on adherent KB cells)
- Assay type: binding
- experimental conditions: KB cells, 10% serum, 37° C.; versus FA (or the Glu-bearing parent)
Each item that follows carries a reported fold weaker affinity / fold lower RA.

Before answering, review these 3 worked examples.
compound	test target	result
CN(Cc1cnc2nc(N)[nH]c(=N)c2n1)c1ccc(C(=O)N[C@@H](CCC(=O)O)C(=O)O)cc1 [Methotrexate]	human FRs (KB cells) (Homo sapiens)	50
C#CCN(Cc1ccc2nc(N)[nH]c(=O)c2c1)c1ccc(C(=O)O)cc1 [Des-glutamyl CB3717, N^10-propargyl 5,8-dideazapteroic acid]	human FRs (KB cells) (Homo sapiens)	> 300
Nc1nc2c(c(=O)[nH]1)N(C=O)C(CNc1ccc(C(=O)N[C@@H](CCC(=O)O)C(=O)O)cc1)CN2 (stereo partly shown) [5-formyl-tetrahydrofolate, 5-formyltetrahydrofolate]	human FRs (KB cells) (Homo sapiens)	125

We next turn to a different compound, shown below.
fold weaker affinity / fold lower RA for CN1c2c(nc(N)[nH]c2=O)NCC1CNc1ccc(C(=O)N[C@@H](CCC(=O)O)C(=O)O)cc1 (stereo partly shown) [5-methyl-tetrahydrofolate, 5-methyltetrahydrofolate] is 14
